Recorded EC50, CreLuc reporter, 0.5% hP for the following binders
# Tested system: human GLP-1 receptor (human, UniProt P43220 24-463)
# Measurement protocol: cell-based or functional assay
Write it as a number; the unit nM goes unstated.

Binder	EC50, CreLuc reporter, 0.5% hP, nM
YXEGTFTSDYSIXLEQQAQXAFVRHLINKXTRQRY (Aib at 2, 13, 20, 30; Lys29 epsilon-amino acylated with C18DA-gGlu-gGlu-gGlu-gGlu-gGlu; C-terminal amide) [Compound 42]	0.9
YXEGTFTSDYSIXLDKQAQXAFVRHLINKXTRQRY (Aib at 2, 20, 30; aMeL at 13; Lys29 epsilon-amino acylated with C18DA-gGlu-gGlu-gGlu-gGlu-gGlu-gGlu-eLys; C-terminal amide) [Compound 67]	0.1

Pending binder:
Q: Determine from records and report EC50, CreLuc reporter, 0.5% hP for YXEGTFTSDYSIXLEKQAQXEFVRHLINKXTRQRY (Aib at 2, 13, 20, 30; Lys29 epsilon-amino acylated with C18DA-gGlu-gGlu-gGlu-gGlu-gGlu-AHX; C-terminal amide) [Compound 14]
A: 0.3

From: patent US20250382344A1
